The reader will find reported pIC50 values listed item by item below.
MEASUREMENT_TARGET: UniProtKB O60674
Sequence (O60674 826-1132): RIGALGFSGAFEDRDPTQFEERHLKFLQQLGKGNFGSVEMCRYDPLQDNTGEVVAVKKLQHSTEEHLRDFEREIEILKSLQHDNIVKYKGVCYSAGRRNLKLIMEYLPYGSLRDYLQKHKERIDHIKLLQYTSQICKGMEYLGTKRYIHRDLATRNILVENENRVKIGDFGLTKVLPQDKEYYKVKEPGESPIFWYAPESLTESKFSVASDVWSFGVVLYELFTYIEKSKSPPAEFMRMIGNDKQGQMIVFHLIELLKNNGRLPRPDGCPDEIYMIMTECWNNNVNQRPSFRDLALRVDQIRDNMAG
TEST_SUMMARY: In vitro JAK kinase assay (TR-FRET), JAK2
TEST_SETTINGS: catalytic domain aa 826-1132, GST-fusion; ATP 0.2 μM; peptide 20 nM; 30 minutes at room temperature
pIC50: −log10 of the molar value.

| SMILES_ENTRY | MEASUREMENT_TARGET | pIC50 |
| --- | --- | --- |
| Cc1ncc(-c2nc(-c3cnn4ccccc34)nc(N[C@@H]3CCCN(C(=O)CO)C3)c2F)cn1 | UniProtKB O60674 | 8.70 |
| COc1nc(-c2cnn3ccccc23)nc(O[C@@H]2CCCN(C(=O)CC#N)C2)c1F | UniProtKB O60674 | 8.52 |
| CN1CCN(c2nc(-c3cnn4ccccc34)nc(N[C@@H]3CCCN(C(=O)CO)C3)c2F)CC1 | UniProtKB O60674 | 9.22 |
| Cc1cc(-c2nc(-c3cnn4ccccc34)nc(N(C)[C@@H]3CCCN(C(=O)CC#N)C3)c2F)ccn1 | UniProtKB O60674 | 9.00 |
